Give measured optical density for each item. Keep answers brief.
Target: mouse ACVR2A (mouse, UniProt P27038 20-135, limits assumed); also: test concentration or dose not given here
Sequence (P27038 20-135 limits assumed): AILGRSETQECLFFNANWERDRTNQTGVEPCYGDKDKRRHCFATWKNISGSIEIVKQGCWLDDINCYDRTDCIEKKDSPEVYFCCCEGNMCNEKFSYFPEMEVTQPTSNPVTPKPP
Experiment: ELISA
Procedure: The binding of ACVR2A-specific monoclonal antibodies to human ACVR2A, mouse ACVR2A, biotinylated goat anti-human kappa light chain (positive control) and human Fc (negative control) were determined by ELISA.
One number for each entry, in OD.

Examples with answers:
Binder	Readout Number
374_B01 (antibody, V domains shown, Group II) VH: EVQLLESGGGLVQPGGSLRLSCAASGFTFDSYGMHWVRQAPGKGLEWVAGINYNSGYTSYADSVKGRFTISRDNSKNTLYLQMNSLRAEDTAVYYCARAATWHDTHLDYWGQGTLVTVSS VL: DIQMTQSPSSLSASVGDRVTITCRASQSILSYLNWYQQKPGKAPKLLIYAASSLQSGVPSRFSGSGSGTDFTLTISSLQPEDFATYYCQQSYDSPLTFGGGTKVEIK	3.37
367_A06 (antibody, V domains shown, Group III) VH: EVQLLESGGGLVQPGGSLRLSCAASGFTFDSYGMNWVRQAPGKGLEWVASINYNGGYKGYADSVKGRFTISRDNSKNTLYLQMNSLRAEDTAVYYCARGANWHDTHLDYWGQGTLVTVSS VL: DIQMTQSPSSLSASVGDRVTITCRASQSILSYVNWYQQKPGKAPKLLIYAATSRHSGVPSRFSGSGSGTDFTLTISSLQPEDFATYYCQQSYDTPLTFGGGTKVEIK	2.57
373_D11 (antibody, V domains shown, Group II) VH: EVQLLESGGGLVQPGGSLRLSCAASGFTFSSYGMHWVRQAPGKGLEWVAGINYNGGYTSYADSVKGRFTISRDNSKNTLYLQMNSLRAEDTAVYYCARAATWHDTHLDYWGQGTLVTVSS VL: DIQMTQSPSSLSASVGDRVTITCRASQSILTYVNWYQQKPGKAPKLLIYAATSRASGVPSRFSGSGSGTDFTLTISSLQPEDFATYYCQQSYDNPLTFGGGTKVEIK	3.55
372_E02 (antibody, V domains shown, Group I) VH: EVQLLESGGGLVQPGGSLRLSCAASGFTFSSYGMNWVRQAPGKGLEWVASINYNGGYTSYADSVKGRFTISRDNSKNTLYLQMNSLRAEDTAVYYCARAANWHDTALDYWGQGTLVTVSS VL: DIQMTQSPSSLSASVGDRVTITCRASQSIISYVNWYQQKPGKAPKLVIYAATSRASGVPSRFSGSGSGTDFTLTISSLQPEDFATYYCQQSYDLPLTFGGGTKVEIK	2.74

Hello, I would appreciate it if you could give optical density for each entry below.
1. 372_B11 (antibody, V domains shown, Group I) VH: EVQLLESGGGLVQPGGSLRLSCAASGFTFSSYSMHWVRQAPGKGLEWVAGINYNSGYTSYADSVKGRFTISRDNSKNTLYLQMNSLRAEDTAVYYCARAANWHDTHLDYWGQGTLVTVSS VL: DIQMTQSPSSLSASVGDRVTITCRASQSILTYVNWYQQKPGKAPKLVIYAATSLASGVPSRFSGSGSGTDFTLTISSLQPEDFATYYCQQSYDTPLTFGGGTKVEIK
2. 365_C05 (antibody, V domains shown, Group III) VH: EVQLLESGGGLVQPGGSLRLSCAASGFTFSDYSMNWVRQAPGKGLEWVSGINYNGGYKGYADSVKGRFTISRDNSKNTLYLQMNSLRAEDTAVYYCARGANWHDTHLDYWGQGTLVTVSS VL: DIQMTQSPSSLSASVGDRVTITCRASQSILTYLNWYQQKPGKAPKLLIYAATSRHSGVPSRFSGSGSGTDFTLTISSLQPEDFATYYCQQSYNSPLTFGGGTKVEIK
3. 365_G03 (antibody, V domains shown, Group III) VH: EVQLLESGGGLVQPGGSLRLSCAASGFTFSSYGMNWVRQAPGKGLEWVAGINYNSGYKGYADSVKGRFTISRDNSKNTLYLQMNSLRAEDTAVYYCARGANWHDTHLDYWGQGTLVTVSS VL: DIQMTQSPSSLSASVGDRVTITCRASQSIVSYLNWYQQKPGKAPKLLIYAATSRASGVPSRFSGSGSGTDFTLTISSLQPEDFATYYCQQSYNTPLTFGGGTKVEIK
4. 373_E11 (antibody, V domains shown, Group I) VH: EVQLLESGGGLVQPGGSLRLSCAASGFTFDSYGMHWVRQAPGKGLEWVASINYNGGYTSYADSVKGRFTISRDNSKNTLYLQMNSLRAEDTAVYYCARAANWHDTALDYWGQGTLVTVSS VL: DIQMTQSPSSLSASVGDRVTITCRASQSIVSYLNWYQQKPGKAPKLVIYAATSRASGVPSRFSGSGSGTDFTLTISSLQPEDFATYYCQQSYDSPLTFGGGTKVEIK
5. 369_E03 (antibody, V domains shown, Group II) VH: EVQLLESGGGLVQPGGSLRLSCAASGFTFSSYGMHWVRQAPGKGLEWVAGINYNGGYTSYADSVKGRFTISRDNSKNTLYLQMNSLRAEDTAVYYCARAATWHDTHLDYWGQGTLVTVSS VL: DIQMTQSPSSLSASVGDRVTITCRASQSILSYVNWYQQKPGKAPKLLIYAATSLASGVPSRFSGSGSGTDFTLTISSLQPEDFATYYCQQSYENPLTFGGGTKVEIK
6. 372_A09 (antibody, V domains shown, Group I) VH: EVQLLESGGGLVQPGGSLRLSCAASGFTFDSYGMNWVRQAPGKGLEWVSGINYNGGYTSYADSVKGRFTISRDNSKNTLYLQMNSLRAEDTAVYYCARAANWHDTALDYWGQGTLVTVSS VL: DIQMTQSPSSLSASVGDRVTITCRASQSILSYLNWYQQKPGKAPKLVIYAATSRASGVPSRFSGSGSGTDFTLTISSLQPEDFATYYCQQSYNSPLTFGGGTKVEIK

1. 2.58
2. 2.81
3. 2.54
4. 3.36
5. 3.36
6. 2.56
